target: IGF1-receptor kinase (IGFR) (Homo sapiens, UniProt P08069); construct: GST (with thrombin cleavage site) (N); test: 96-well FRET (Lance) tyrosine kinase assay, IGFR; details: ATP 100 micromolar final, 1 hour reaction, enzyme form (GST-, Bis- or Tris-IGFR) not given
Sequence (P08069 31-1367): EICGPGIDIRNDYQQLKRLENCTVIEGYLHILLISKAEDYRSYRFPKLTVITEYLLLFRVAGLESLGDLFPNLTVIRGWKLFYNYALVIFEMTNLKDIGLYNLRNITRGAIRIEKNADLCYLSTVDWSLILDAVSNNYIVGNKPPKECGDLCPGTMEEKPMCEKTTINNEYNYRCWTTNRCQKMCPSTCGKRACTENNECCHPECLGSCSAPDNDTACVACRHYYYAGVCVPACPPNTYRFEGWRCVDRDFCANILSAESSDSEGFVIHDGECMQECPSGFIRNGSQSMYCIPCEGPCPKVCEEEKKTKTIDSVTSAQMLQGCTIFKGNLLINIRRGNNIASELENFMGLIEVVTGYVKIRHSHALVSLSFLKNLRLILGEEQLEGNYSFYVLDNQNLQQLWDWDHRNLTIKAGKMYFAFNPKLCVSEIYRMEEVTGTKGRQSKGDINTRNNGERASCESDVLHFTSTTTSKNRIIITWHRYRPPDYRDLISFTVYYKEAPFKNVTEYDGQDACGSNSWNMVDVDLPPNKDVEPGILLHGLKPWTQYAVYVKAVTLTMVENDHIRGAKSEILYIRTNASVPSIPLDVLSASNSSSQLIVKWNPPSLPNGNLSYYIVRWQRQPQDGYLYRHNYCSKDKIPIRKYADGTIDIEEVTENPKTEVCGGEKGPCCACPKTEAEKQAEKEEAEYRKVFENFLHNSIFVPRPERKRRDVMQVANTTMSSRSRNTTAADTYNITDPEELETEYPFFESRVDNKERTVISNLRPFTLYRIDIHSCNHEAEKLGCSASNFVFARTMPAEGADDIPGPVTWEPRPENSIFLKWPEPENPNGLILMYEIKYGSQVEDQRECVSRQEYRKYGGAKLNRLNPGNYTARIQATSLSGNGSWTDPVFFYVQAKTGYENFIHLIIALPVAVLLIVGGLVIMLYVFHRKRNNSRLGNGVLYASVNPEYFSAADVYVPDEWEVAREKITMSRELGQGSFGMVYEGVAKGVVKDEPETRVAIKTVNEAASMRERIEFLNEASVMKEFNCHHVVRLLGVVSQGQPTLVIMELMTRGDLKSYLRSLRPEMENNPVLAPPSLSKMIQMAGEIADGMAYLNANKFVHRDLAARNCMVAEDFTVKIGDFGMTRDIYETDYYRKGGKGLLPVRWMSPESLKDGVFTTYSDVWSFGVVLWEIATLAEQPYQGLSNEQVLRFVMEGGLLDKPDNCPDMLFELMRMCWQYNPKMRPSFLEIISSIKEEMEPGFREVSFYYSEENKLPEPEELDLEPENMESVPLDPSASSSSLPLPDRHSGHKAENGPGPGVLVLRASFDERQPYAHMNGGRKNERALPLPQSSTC
property-label: log10 of IC50 (log10 of the value in nM)

1. CCn1c(Sc2ccc(Nc3c(C#N)cnc4cc(NCCCN(CCO)CCO)c(OC)cc34)cc2Cl)nc(C)c1C | 1.32
2. COc1cc2c(Nc3ccc(Sc4nc(C)c(C)n4C)cc3)c(C#N)cnc2cc1NCCCN(C)C | 2.60
3. CCn1c(Sc2ccc(Nc3c(C#N)cnc4cc(NCCCN5CCOCC5)c(OC)cc34)cc2Cl)nc(C)c1C | 1.11
4. COc1cc2c(Nc3ccc(Sc4nc(C)c(C)n4C)c(Br)c3)c(C#N)cnc2cc1NCCCN(C)C | 1.48
5. CCn1c(Sc2ccc(Nc3c(C#N)cnc4cc(OCCCN5CCC(O)CC5)c(OC)cc34)cc2Cl)nc(C)c1C | 1.67
6. CCOC(=O)CN1CCN(CCCOc2cc3ncc(C#N)c(Nc4ccc(Sc5nc(C)c(C)n5CC)c(Cl)c4)c3cc2OC)CC1 | 1.23

----------
Overview of reported IC50 across a group of compounds:
biological target: IGF1-receptor kinase (IGFR) (Homo sapiens); construct: GST (with thrombin cleavage site) (N); assay: 96-well FRET (Lance) tyrosine kinase assay, IGFR; details: ATP 100 micromolar final, 1 hour reaction, enzyme form (GST-, Bis- or Tris-IGFR) not given
property-label: IC50 (nM)

1) COc1cc2c(Nc3ccc(Sc4nc5cc(C)ccc5n4C)c(Cl)c3)c(C#N)cnc2cc1NCCCN(C)C | 291
2) CCn1c(Sc2ccc(Nc3c(C#N)cnc4cc(OCCCN5CCN(CCO)CC5)c(OC)cc34)cc2Cl)nc(C)c1C | 11
3) CCC1CCCCN1CCCOc1cc2ncc(C#N)c(Nc3ccc(Sc4nc(C)c(C)n4CC)c(Cl)c3)c2cc1OC (centres unmarked) | 27
4) CCn1c(Sc2ccc(Nc3c(C#N)cnc4cc(OCCCN(CCO)C(C)(C)C)c(OC)cc34)cc2Cl)nc(C)c1C | 24
5) CCn1c(Sc2ccc(Nc3c(C#N)cnc4cc(OCCCNS(C)(=O)=O)c(OC)cc34)cc2Cl)nc(C)c1C | 35
6) CCN1CCN(CCCOc2cc3ncc(C#N)c(Nc4ccc(Sc5nc(C)c(C)n5CC)c(Cl)c4)c3cc2OC)CC1 | 5
7) CCn1c(Sc2ccc(Nc3c(C#N)cnc4cc(OCCCN5CCC(O)C5)c(OC)cc34)cc2Cl)nc(C)c1C (centres unmarked) | 20
8) CCn1c(Sc2ccc(Nc3c(C#N)cnc4cc(NCCCN5CCN(C)CC5)c(OC)cc34)cc2Cl)nc(C)c1C | 2
9) CCn1c(Sc2ccc(Nc3c(C#N)cnc4cc(OCCCNS(=O)(=O)c5ccccc5)c(OC)cc34)cc2Cl)nc(C)c1C | 3880
10) CCn1c(Sc2ccc(Nc3c(C#N)cnc4cc(OCCCN5CCOCC5)c(OC)cc34)cc2Cl)nc(C)c1C | 22
11) CCOC(=O)C1CCN(CCCOc2cc3ncc(C#N)c(Nc4ccc(Sc5nc(C)c(C)n5CC)c(Cl)c4)c3cc2OC)CC1 | 142
12) CCn1c(Sc2ccc(Nc3c(C#N)cnc4cc(NCCCc5ccccc5)c(OC)cc34)cc2Cl)nc(C)c1C | 17200
13) CCn1c(Sc2ccc(Nc3c(C#N)cnc4cc(OCCCN5CCN(C(C)=O)CC5)c(OC)cc34)cc2Cl)nc(C)c1C | 16
14) CCOC(=O)N1CCN(CCCOc2cc3ncc(C#N)c(Nc4ccc(Sc5nc(C)c(C)n5CC)c(Cl)c4)c3cc2OC)CC1 | 41
